- Test system: Streptococcus pneumoniae
- procedure_details: Antibacterial activity against methicillin-resistant Streptococcus pneumoniae ATCC 700677 assessed as inhibition of bacterial growth measured after 18 to 20 hrs by CLSI protocol based broth microdilution method
- Type: functional
- run_conditions: time 18-20 hrs
value_type: MBC (µg/mL)
Numeric only. Scale: µg/mL

Example entries and their recorded answers appear below.
item_smiles: C/C(=N\NC(=N)N)c1ccc(Nc2nc(-c3ccc(Cl)cc3)cs2)cc1
MBC / µg/mL: 4
//
item_smiles: CC(=O)NC[C@H]1CN(c2ccc(N3CCOCC3)c(F)c2)C(=O)O1
MBC / µg/mL: 16
//
item_smiles: C/C(=N\NC(=N)N)c1ccc(Nc2nc(-c3ccc(C)cc3)cs2)cc1
MBC / µg/mL: 8

Here's the next entry for you.
Q: Quick one: give measured MBC for C/C(=N\NC(=N)N)c1ccc(Nc2nc(-c3ccccc3)cs2)cc1
A: 8

----------
Catalogue of selectivity ratio readings, one per entry.
- procedure_details: Selectivity index, ratio of maximum non-toxic concentration for human Caco-2 cells to MIC for methicillin-resistant Staphylococcus aureus USA500 NRS385
- Assay type: toxicity
API note: the answer field is a bare number with no unit suffix.

Example entries and their recorded answers appear below.
item_smiles: C/C(=N\NC(=N)N)c1ccc(Nc2nc(-c3ccccc3)cs2)cc1
val: 16
--
item_smiles: C/C(=N\NC(=N)N)c1ccc(Nc2nc(-c3ccc(C)cc3)cs2)cc1
val: 16

Here's the next entry for you.
Q: Quick one: give measured selectivity ratio for C/C(=N\NC(=N)N)c1ccc(Nc2nc(-c3ccc(Cl)cc3)cs2)cc1
A: 16

----------
- System: Enterococcus faecalis
- procedure_details: microbe, parasite or virus in culture
- run_conditions: ATCC 51299
Catalogue of MBC readings, one per entry.
Numeric only. Scale: µg/mL

Example entries and their recorded answers appear below.
molecule: C/C(=N\NC(=N)N)c1ccc(Nc2nc(-c3ccccc3)cs2)cc1
MBC / µg/mL: 4

molecule: CN[C@H](CC(C)C)C(=O)N[C@H]1C(=O)N[C@@H](CC(N)=O)C(=O)N[C@H]2C(=O)N[C@H]3C(=O)N[C@H](C(=O)N[C@H](C(=O)O)c4cc(O)cc(O)c4-c4cc3ccc4O)[C@H](O)c3ccc(c(Cl)c3)Oc3cc2cc(c3O[C@@H]2O[C@H](CO)[C@@H](O)[C@H](O)[C@H]2O[C@H]2C[C@](C)(N)[C@H](O)[C@H](C)O2)Oc2ccc(cc2Cl)[C@H]1O [VANCOMYCIN]
MBC / µg/mL: 64

molecule: C/C(=N\NC(=N)N)c1ccc(Nc2nc(-c3ccc(Cl)cc3)cs2)cc1
MBC / µg/mL: 4

molecule: C/C(=N\NC(=N)N)c1ccc(Nc2nc(-c3ccc(C)cc3)cs2)cc1
MBC / µg/mL: 4

Here's the next entry for you.
Q: Quick one: give measured MBC for CC(=O)NC[C@H]1CN(c2ccc(N3CCOCC3)c(F)c2)C(=O)O1 [LINEZOLID]
A: 16

----------
- procedure_details: Cytotoxicity against human Caco-2 cells assessed as cell viability at 32 ug/ml incubated for 2 hrs by MTS assay relative to control
- Format: cell-based
- run_conditions: at 32 µg/mL, read-out: Activity
Catalogue of viability at 2 h, 32 ug/ml readings, one per entry.
Numeric only. Scale: %

Q: Quick one: give measured viability at 2 h, 32 ug/ml for C/C(=N\NC(=N)N)c1ccc(Nc2nc(-c3ccc(Cl)cc3)cs2)cc1
A: 100

Q: Quick one: give measured viability at 2 h, 32 ug/ml for C/C(=N\NC(=N)N)c1ccc(Nc2nc(-c3ccccc3)cs2)cc1
A: 100

----------
- procedure_details: Selectivity index, ratio of maximum non-toxic concentration for human Caco-2 cells to MIC for methicillin-resistant Staphylococcus aureus USA700 NRS386
- Format: toxicity
Catalogue of selectivity ratio readings, one per entry.

item_smiles: C/C(=N\NC(=N)N)c1ccc(Nc2nc(-c3ccccc3)cs2)cc1
selectivity ratio: 16
--
item_smiles: C/C(=N\NC(=N)N)c1ccc(Nc2nc(-c3ccc(Cl)cc3)cs2)cc1
selectivity ratio: 16

Q: Quick one: give measured selectivity ratio for C/C(=N\NC(=N)N)c1ccc(Nc2nc(-c3ccc(C)cc3)cs2)cc1
A: 16

----------
Catalogue of MIC readings, one per entry.
- Tested on: Staphylococcus aureus
- procedure_details: microbe, parasite or virus in culture
- run_conditions: NRS107
Numeric only. Scale: µg/mL

Example entries and their recorded answers appear below.
compound: CC(=O)NC[C@H]1CN(c2ccc(N3CCOCC3)c(F)c2)C(=O)O1 [LINEZOLID]
target_desc: Staphylococcus aureus
MIC (µg/mL): 1
//
compound: C/C(=N\NC(=N)N)c1ccc(Nc2nc(-c3ccc(C)cc3)cs2)cc1
target_desc: Staphylococcus aureus
MIC (µg/mL): 2
//
compound: C/C(=N\NC(=N)N)c1ccc(Nc2nc(-c3ccc(Cl)cc3)cs2)cc1
target_desc: Staphylococcus aureus
MIC (µg/mL): 1

Here's the next entry for you.
Q: Find MIC for C/C(=N\NC(=N)N)c1ccc(Nc2nc(-c3ccccc3)cs2)cc1 on Staphylococcus aureus and write it down.
A: 1

----------
- procedure_details: Half life in human liver microsomes at 0.1 uM in absence of NADPH by LC/MS/MS analysis
- Assay type: ADME, Microsome
value_type: half-life at 0.1 µM

Q: Quick one: give measured half-life at 0.1 µM for C/C(=N\NC(=N)N)c1ccc(Nc2nc(-c3ccc(C)cc3)cs2)cc1
A: 4.23 h

----------
- procedure_details: Cytotoxicity against human Caco-2 cells assessed as cell viability at 64 ug/ml incubated for 2 hrs by MTS assay relative to control
- Type: cell-based
- run_conditions: at 64 µg/mL, read-out: Activity
value_type: viability at 2 h, 64 ug/ml
A complete answer gives the number and then names the unit.

Q: Quick one: give measured viability at 2 h, 64 ug/ml for C/C(=N\NC(=N)N)c1ccc(Nc2nc(-c3ccc(C)cc3)cs2)cc1
A: 100%

----------
Catalogue of MIC readings, one per entry.
- Tested on: Escherichia coli
- procedure_details: Antibacterial activity against wild type Escherichia coli BW25113 assessed as inhibition of bacterial growth measured after 18 to 20 hrs by broth microdilution method
- Assay type: functional
- run_conditions: time 18-20 hrs
Numeric only. Scale: µg/mL

item_smiles: C/C(=N\NC(=N)N)c1ccc(Nc2nc(-c3ccc(Cl)cc3)cs2)cc1
MIC / µg/mL: 8

Here's the next entry for you.
Q: Quick one: give measured MIC for COc1ccc(-c2csc(Nc3ccc(/C(C)=N/NC(=N)N)cc3)n2)cc1
A: 4

----------
- procedure_details: Cytotoxicity against mouse J774 cells assessed as cell viability at 16 ug/ml incubated for 2 hrs by MTS assay relative to control
- Assay type: cell-based
- run_conditions: at 16 µg/mL, read-out: Activity
value_type: viability at 2 h, 16 ug/ml (%)
Numeric only. Scale: %

Q: Quick one: give measured viability at 2 h, 16 ug/ml for C/C(=N\NC(=N)N)c1ccc(Nc2nc(-c3ccccc3)cs2)cc1
A: 100

----------
Catalogue of MIC readings, one per entry.
- Tested on: Escherichia coli
- procedure_details: Antibacterial activity against wild type Escherichia coli BW25113 assessed as inhibition of bacterial growth measured after 18 to 20 hrs by broth microdilution method
- Type: functional
- run_conditions: time 18-20 hrs

Example entries and their recorded answers appear below.
compound: C/C(=N\NC(N)=S)c1ccc(Nc2nc(-c3ccccc3)cs2)cc1
value_type: MIC
val: > 64 µg/mL
--
compound: CN[C@@H]1[C@@H](O)[C@@H](O[C@@H]2[C@@H](O)[C@H](O[C@H]3O[C@H]([C@@H](C)N)CC[C@H]3N)[C@@H](N)C[C@H]2N)OC[C@]1(C)O [GENTAMICIN C2]
value_type: MIC
val: 0.25 µg/mL
--
compound: C/C(=N\NC(=N)N)c1ccc(Nc2nc(-c3ccc(Br)cc3)cs2)cc1
value_type: MIC
val: 4 µg/mL
--
compound: C/C(=N\NC(N)=O)c1ccc(Nc2nc(-c3ccc(Br)cc3)cs2)cc1
value_type: MIC
val: > 64 µg/mL
--
compound: CC(=O)c1ccc(Nc2nc(-c3ccc(Cl)cc3)cs2)cc1
value_type: MIC
val: > 64 µg/mL
--
compound: COc1ccc(-c2csc(Nc3ccc(C(C)=O)cc3)n2)cc1
value_type: MIC
val: > 64 µg/mL
--
compound: C/C(=N\NC(N)=S)c1ccc(Nc2nc(-c3ccc(Br)cc3)cs2)cc1
value_type: MIC
val: > 64 µg/mL
--
compound: C/C(=N\NC(N)=O)c1ccc(Nc2nc(-c3ccccc3)cs2)cc1
value_type: MIC
val: > 64 µg/mL
--
compound: COc1ccc(-c2csc(Nc3ccc(/C(C)=N/NC(N)=S)cc3)n2)cc1
value_type: MIC
val: > 64 µg/mL

Q: Quick one: give measured MIC for COc1ccc(-c2csc(Nc3ccc(/C(C)=N/NC(N)=O)cc3)n2)cc1
A: > 64 µg/mL
